Hello, the source for this data is the supplement of paper PMC10065799, in case you need it.

# ASSAY TARGET: FGFR3 (UniProt P22607)
# Sequence (P22607 whole entry, looked up): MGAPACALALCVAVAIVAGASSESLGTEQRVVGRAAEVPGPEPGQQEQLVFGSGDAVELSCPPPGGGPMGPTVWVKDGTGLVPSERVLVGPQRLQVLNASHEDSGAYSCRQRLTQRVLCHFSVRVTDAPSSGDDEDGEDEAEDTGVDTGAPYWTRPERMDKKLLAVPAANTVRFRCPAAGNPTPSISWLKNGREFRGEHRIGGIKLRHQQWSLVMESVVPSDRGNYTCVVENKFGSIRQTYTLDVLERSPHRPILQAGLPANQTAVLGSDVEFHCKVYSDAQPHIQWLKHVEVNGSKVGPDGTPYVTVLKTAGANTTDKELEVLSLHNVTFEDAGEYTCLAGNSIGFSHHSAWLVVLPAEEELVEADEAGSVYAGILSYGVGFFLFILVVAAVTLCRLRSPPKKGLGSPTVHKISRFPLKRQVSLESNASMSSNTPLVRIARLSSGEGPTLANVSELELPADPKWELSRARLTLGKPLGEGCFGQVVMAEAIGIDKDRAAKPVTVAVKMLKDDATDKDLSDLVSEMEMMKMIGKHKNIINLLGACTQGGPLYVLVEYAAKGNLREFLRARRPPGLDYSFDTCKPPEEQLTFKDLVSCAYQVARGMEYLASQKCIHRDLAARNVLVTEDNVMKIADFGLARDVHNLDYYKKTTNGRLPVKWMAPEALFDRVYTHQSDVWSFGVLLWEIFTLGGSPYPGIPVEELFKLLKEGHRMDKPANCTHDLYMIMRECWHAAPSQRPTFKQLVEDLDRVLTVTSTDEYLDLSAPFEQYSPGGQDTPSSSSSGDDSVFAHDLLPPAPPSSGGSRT
# METHOD SUMMARY: phosphorylation enrichment, bacterial display (enrichment ratio); higher = better substrate or ligand; peptides without Tyr show the background
// values below are reported phosphorylation enrichment
Provide a numeric answer; units are not to be included.

Take a look at these entries with their results.
>  <BIOSEQUENCE>
PIAPVYAPSMV [ACAT1_Y331_A333P]

>  <phosphorylation enrichment>
1.22

$$$$
>  <BIOSEQUENCE>
CTTIHYMFMCN [TP53_Y234_N235M_YF]

>  <phosphorylation enrichment>
0.659

$$$$
>  <BIOSEQUENCE>
NPQKPYFIRLY [WAS_Y83_S82P]

>  <phosphorylation enrichment>
0.675

$$$$
>  <BIOSEQUENCE>
NNDLCYWVLEL [IARS1_Y434_P437L]

>  <phosphorylation enrichment>
7.8

$$$$
>  <BIOSEQUENCE>
QTPVLYAMLYH [MPZ_Y220_D224Y]

>  <phosphorylation enrichment>
4.53

$$$$
>  <BIOSEQUENCE>
TRVMEYISRLD [CLTCL1_Y1043]

>  <phosphorylation enrichment>
0.44

$$$$

Consider the record given below.
Give phosphorylation enrichment for the following sequence: RLLVVYPWTKR [HBB_Y36_Q40K]
0.613

---

# ASSAY TARGET: MERTK (UniProt Q12866)
# Sequence (Q12866 whole entry, looked up): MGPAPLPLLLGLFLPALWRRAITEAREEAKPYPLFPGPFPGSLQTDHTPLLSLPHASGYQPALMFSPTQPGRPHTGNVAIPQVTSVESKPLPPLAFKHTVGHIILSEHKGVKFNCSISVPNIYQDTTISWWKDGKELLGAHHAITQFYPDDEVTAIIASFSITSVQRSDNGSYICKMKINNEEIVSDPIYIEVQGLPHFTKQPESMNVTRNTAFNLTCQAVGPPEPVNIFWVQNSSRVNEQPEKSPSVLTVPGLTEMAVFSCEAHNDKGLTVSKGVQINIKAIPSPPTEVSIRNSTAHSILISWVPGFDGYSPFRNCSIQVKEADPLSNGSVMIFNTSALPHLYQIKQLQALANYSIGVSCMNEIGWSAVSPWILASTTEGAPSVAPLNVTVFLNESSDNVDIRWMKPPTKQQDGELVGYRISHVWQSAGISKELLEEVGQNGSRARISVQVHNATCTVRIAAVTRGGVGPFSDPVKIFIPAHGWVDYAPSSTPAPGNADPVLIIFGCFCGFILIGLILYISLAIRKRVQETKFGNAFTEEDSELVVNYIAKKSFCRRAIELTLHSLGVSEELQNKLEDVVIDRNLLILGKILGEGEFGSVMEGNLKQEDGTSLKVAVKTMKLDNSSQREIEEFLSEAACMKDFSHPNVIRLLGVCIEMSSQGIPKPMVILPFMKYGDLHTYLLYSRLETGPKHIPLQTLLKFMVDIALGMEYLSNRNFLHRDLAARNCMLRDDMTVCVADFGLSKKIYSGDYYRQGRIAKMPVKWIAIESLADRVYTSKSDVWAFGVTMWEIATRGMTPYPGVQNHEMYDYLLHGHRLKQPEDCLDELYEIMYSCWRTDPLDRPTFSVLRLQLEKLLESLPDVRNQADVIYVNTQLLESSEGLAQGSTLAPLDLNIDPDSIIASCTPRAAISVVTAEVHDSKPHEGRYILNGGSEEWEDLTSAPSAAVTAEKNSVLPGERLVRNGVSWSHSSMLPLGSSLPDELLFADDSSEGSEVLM
# METHOD SUMMARY: phosphorylation enrichment, bacterial display (enrichment ratio); higher = better substrate or ligand; peptides without Tyr show the background
// bucketize phosphorylation enrichment: Low (below 0.4), Medium (0.4 to below 0.5), High (0.5 or more)

Illustrative cases are given below, each with its answer.
>  <BIOSEQUENCE>
EYFDGYWGYSV [ITGA2B_Y265]

>  <CLASSIFICATION>
High

$$$$
>  <BIOSEQUENCE>
QSPQLYKQLCI [DARS1_Y253_M256L]

>  <CLASSIFICATION>
Medium

$$$$
>  <BIOSEQUENCE>
ERFSYYGMKAV [SLC15A2_Y61]

>  <CLASSIFICATION>
High

$$$$
>  <BIOSEQUENCE>
RPFFLYVAFHN [SGSH_Y174_D179N]

>  <CLASSIFICATION>
Medium

$$$$

Class for EDGCIYPATIA [SMN1_Y109] ?
High

Class for REEKNYKHKET [BCLAF1_Y459_L461H] ?
High

Class for DDYDLYGGEKF [PTPN11_Y66_Y62D] ?
Medium

Class for PSSNLYYRWLT [CNGA3_Y168] ?
High

---

# Tested on: AncSZ
# METHOD SUMMARY: phosphorylation enrichment, bacterial display (enrichment ratio); higher = better substrate or ligand; peptides without Tyr show the background
// values below are reported phosphorylation enrichment
Provide a numeric answer; units are not to be included.

Take a look at these entries with their results.
>  <BIOSEQUENCE>
YGMQLYQKYMH [GRB14_Y347_N349K]

>  <phosphorylation enrichment>
0.844

$$$$
>  <BIOSEQUENCE>
DVLEFYNSKKT [PAK1_Y131]

>  <phosphorylation enrichment>
1.08

$$$$

Consider the record given below.
Give phosphorylation enrichment for the following sequence: KGEDFYYVTCH [FHL1_Y149_C150Y]
1.35

---

// values below are reported phosphorylation enrichment
# ASSAY TARGET: EPHB2 (UniProt P29323)
# Sequence (P29323 whole entry, looked up): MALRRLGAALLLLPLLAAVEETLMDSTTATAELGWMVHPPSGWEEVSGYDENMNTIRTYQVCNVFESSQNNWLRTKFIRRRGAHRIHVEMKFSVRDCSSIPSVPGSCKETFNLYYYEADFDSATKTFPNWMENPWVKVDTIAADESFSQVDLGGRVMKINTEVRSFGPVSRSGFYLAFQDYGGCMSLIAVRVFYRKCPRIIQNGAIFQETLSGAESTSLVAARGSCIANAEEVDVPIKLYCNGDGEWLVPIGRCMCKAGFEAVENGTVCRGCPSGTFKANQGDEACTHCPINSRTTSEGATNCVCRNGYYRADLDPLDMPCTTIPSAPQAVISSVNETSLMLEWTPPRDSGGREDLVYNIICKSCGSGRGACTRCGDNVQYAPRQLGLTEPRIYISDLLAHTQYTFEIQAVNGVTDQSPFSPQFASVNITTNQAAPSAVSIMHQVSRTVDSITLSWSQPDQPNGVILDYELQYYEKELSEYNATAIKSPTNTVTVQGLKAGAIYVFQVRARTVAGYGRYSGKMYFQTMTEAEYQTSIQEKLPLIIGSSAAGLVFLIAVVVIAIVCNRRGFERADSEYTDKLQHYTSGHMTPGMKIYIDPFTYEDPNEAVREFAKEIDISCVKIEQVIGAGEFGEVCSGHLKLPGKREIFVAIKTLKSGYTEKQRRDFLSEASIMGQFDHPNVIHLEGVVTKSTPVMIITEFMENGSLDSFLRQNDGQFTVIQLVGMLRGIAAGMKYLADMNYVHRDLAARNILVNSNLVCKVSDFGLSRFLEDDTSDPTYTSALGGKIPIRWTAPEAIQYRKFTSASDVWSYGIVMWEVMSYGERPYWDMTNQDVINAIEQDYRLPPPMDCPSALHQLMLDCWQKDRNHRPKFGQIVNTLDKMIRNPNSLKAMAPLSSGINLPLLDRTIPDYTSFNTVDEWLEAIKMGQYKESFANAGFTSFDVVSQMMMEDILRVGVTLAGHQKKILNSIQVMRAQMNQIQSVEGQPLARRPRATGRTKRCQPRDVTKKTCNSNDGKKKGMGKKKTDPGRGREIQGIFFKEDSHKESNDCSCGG
# METHOD SUMMARY: phosphorylation enrichment, bacterial display (enrichment ratio); higher = better substrate or ligand; peptides without Tyr show the background

Take a look at these entries with their results.
>  <BIOSEQUENCE>
DSFWSYCNAVA [SLC20A2_Y436_S434W_YF]

>  <MEASUREMENT NAME>
phosphorylation enrichment

>  <MEASURED RESULT>
0.67

$$$$
>  <BIOSEQUENCE>
ISRVLYPNDNF [PYGM_Y281]

>  <MEASUREMENT NAME>
phosphorylation enrichment

>  <MEASURED RESULT>
0.524

$$$$
>  <BIOSEQUENCE>
QSSALYEDHFL [ASS1_Y83_R86H_YF]

>  <MEASUREMENT NAME>
phosphorylation enrichment

>  <MEASURED RESULT>
4.17

$$$$
>  <BIOSEQUENCE>
MHYSNYVSKGS [PDGFRA_Y849_D846Y]

>  <MEASUREMENT NAME>
phosphorylation enrichment

>  <MEASURED RESULT>
0.472

$$$$
>  <BIOSEQUENCE>
STILLYHIMAW [GPR143_Y157]

>  <MEASUREMENT NAME>
phosphorylation enrichment

>  <MEASURED RESULT>
2.88

$$$$
>  <BIOSEQUENCE>
LPKDLYLISQM [LARP4_Y141_S137P]

>  <MEASUREMENT NAME>
phosphorylation enrichment

>  <MEASURED RESULT>
0.757

$$$$
>  <BIOSEQUENCE>
FFRDGHMPRQF [GSS_Y270_Y270H_YF]

>  <MEASUREMENT NAME>
phosphorylation enrichment

>  <MEASURED RESULT>
0.363

$$$$
>  <BIOSEQUENCE>
DNPAKYFILEN [DPP10_Y512_S517N]

>  <MEASUREMENT NAME>
phosphorylation enrichment

>  <MEASURED RESULT>
0.456

$$$$

Give phosphorylation enrichment for the following sequence: GNHISYYQSDG [CACNA1C_Y1757_V1755I]
0.4

---

// values below are reported phosphorylation enrichment
# Test system: c-Abl (mouse)
# METHOD SUMMARY: phosphorylation enrichment, bacterial display (enrichment ratio); higher = better substrate or ligand; peptides without Tyr show the background

Take a look at these entries with their results.
>  <BIOSEQUENCE>
DSYWSYCNAVA [SLC20A2_Y436_S434W]

>  <phosphorylation enrichment>
1.45

$$$$
>  <BIOSEQUENCE>
QFNMQYSSSAA [ERBB2IP_Y981_I979M_YF]

>  <phosphorylation enrichment>
0.449

$$$$
>  <BIOSEQUENCE>
QYQEKYKQVEQ [HCN4_Y531]

>  <phosphorylation enrichment>
0.493

$$$$
>  <BIOSEQUENCE>
TSSAGYRRTPS [ABI1_Y333_G331A]

>  <phosphorylation enrichment>
0.576

$$$$
>  <BIOSEQUENCE>
AELVRYYMEHH [PTPN11_Y80_Q79R]

>  <phosphorylation enrichment>
0.421

$$$$

Give phosphorylation enrichment for this entry on c-Abl (mouse): FSQQTYYPVSN [ABCD1_Y180_R182P]
0.697

Give phosphorylation enrichment for this entry on c-Abl (mouse): EDDIIYTQDFM [STK11_Y362_T367M]
0.889

Give phosphorylation enrichment for this entry on c-Abl (mouse): FLNSSYINIST [IL23R_Y178_T175N_YF]
0.383

Give phosphorylation enrichment for this entry on c-Abl (mouse): QRIHNYFEHRF [HCN4_Y554_D553N_YF]
0.34

Give phosphorylation enrichment for this entry on c-Abl (mouse): LKTNWYNNGKD [DNMT3B_Y404_C403W]
1.62

Give phosphorylation enrichment for this entry on c-Abl (mouse): KTTILYKLKLG [ARF1_Y35]
0.719

Give phosphorylation enrichment for this entry on c-Abl (mouse): IYETDYYRKGG [INSR_Y1189]
0.626

Give phosphorylation enrichment for this entry on c-Abl (mouse): VLTSKYPGGGG [HBA1_Y141_R142P]
0.342

---

// values below are reported SH2 binding enrichment
# ASSAY TARGET: SHP2-C SH2
# METHOD SUMMARY: SH2 binding enrichment of the phosphorylated peptide, bacterial display (enrichment ratio); higher = better substrate or ligand; peptides without Tyr show the background
Provide a numeric answer; units are not to be included.

>  <BIOSEQUENCE>
MCITRYERESQ [PRNP_Y218_Q217R]

>  <ASSAY TARGET>
SHP2-C SH2

>  <SH2 binding enrichment>
0.784

$$$$
>  <BIOSEQUENCE>
AERKLYSGAQT [ZAP70_Y178]

>  <ASSAY TARGET>
SHP2-C SH2

>  <SH2 binding enrichment>
0.635

$$$$
>  <BIOSEQUENCE>
FDKEFYSVHNK [MET_Y1235_YF]

>  <ASSAY TARGET>
SHP2-C SH2

>  <SH2 binding enrichment>
0.841

$$$$

Give SH2 binding enrichment for the following sequence: RAQIRYAQEHD [NSD1_Y1987_R1984Q]
0.725

Give SH2 binding enrichment for the following sequence: VPLLEYYWDIF [CDAN1_Y712_R714W]
1.08

Give SH2 binding enrichment for the following sequence: FPPISYLNAIS [MVD_Y276]
0.771

---

# ASSAY TARGET: SHP2-C SH2;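 further: peptide library displayed on the E. coli surface as eCPX fusions, selected cells deep-sequenced, score is each peptide's frequency after selection divided by its frequency in the input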
# METHOD SUMMARY: SH2 binding enrichment of the phosphorylated peptide, bacterial display (enrichment ratio); higher = better substrate or ligand; peptides without Tyr show the background
MEASUREMENT NAME: SH2 binding enrichment
Provide a numeric answer; units are not to be included.

Give SH2 binding enrichment for this entry on SHP2-C SH2: YDGGCYEQLFV [MC4R_Y41_S36Y]
0.623

Give SH2 binding enrichment for this entry on SHP2-C SH2: FRNSLYAPDYS [FAM92A_Y226]
0.754

Give SH2 binding enrichment for this entry on SHP2-C SH2: FRDALYKFIVD [PHEX_Y250_M253I_YF]
1.02

Give SH2 binding enrichment for this entry on SHP2-C SH2: LEQGEYALRSH [HADHB_Y244_D242G]
0.788
